tested on: LXFL 529 NSCLC; assay: NCI tumour cell line growth inhibition, 48 h
MEASURED_ATTRIBUTE: TGI

Tell me the measured TGI of Cc1cccc(C)c1NC(=O)C(C#N)C1=C(Cl)C(=O)c2ccccc2C1=O (stereo not drawn) , please.
30 µM

Tell me the measured TGI of COC(=O)C(=O)C(C(=O)C(=O)Nc1ccc(F)cc1)c1nc2ccc([N+](=O)[O-])cc2[nH]c1=O (stereo not drawn) , please.
> 100 µM

Tell me the measured TGI of Clc1ccc(C2SCc3nc4ccccc4n32)c(Cl)c1 (stereo not drawn) , please.
24.5 µM

Tell me the measured TGI of CNS(=O)(=O)NN(C)S(=O)(=O)c1ccccc1 , please.
> 100 µM

Tell me the measured TGI of O=C(Nc1ccc(Cl)cc1)c1cc2cc(N=Nc3ccccc3Cl)ccc2oc1=O , please.
32.5 µM

Tell me the measured TGI of COc1cc(OC(=O)c2ccccc2)cc2c1C(=O)C=CC2=O , please.
25.5 µM

Tell me the measured TGI of C=Cc1ccc(C)[n+](C[Si](C)(C)O[Si](C)(C)C)c1 , please.
> 100 µM

Tell me the measured TGI of C[C@]12CCC(=O)C=C1CC[C@@H]1[C@@H]2CC[C@]2(C)C(=O)NC(=O)C[C@@H]12 , please.
> 100 µM

Tell me the measured TGI of CCS(CC)(CC)CC1CCCC2=CCC(P(=O)(c3ccccc3)c3ccccc3)CC21 (stereo not drawn) , please.
22.4 µM

Tell me the measured TGI of Nc1ccnc(=O)[nH]1 , please.
> 100 µM

Tell me the measured TGI of CN1C(=Nc2ccccc2)SC1=Nc1ccccc1 , please.
> 100 µM

Tell me the measured TGI of COC(=O)N/N=C(\Cc1ccccc1)CN(C)C , please.
> 100 µM

Tell me the measured TGI of CP1(=O)CCCCC1 , please.
> 100 µM

Tell me the measured TGI of COc1ccc(Nc2nnc(-c3nsc4ccccc34)s2)cc1 , please.
> 100 µM

Tell me the measured TGI of COc1ccc2c3c1O[C@]1(C)C34CCN(C)C(C2)C42C=C[C@@]1(OC)c1c(O)ccc(O)c12 , please.
> 100 µM

Tell me the measured TGI of CC1CCC(NC(=O)N(CCCl)N=O)CC1 (stereo not drawn) , please.
28.7 µM

Tell me the measured TGI of CC(=O)OC1COC(n2c(O)c(N=NC(N)=S)c3cc(Br)ccc32)C(OC(C)=O)C1OC(C)=O (stereo not drawn) , please.
> 100 µM

Tell me the measured TGI of Oc1ccccc1/C=C/c1csnn1 , please.
> 100 µM

* * *

tested on: CCRF-CEM leukemia; assay: NCI tumour cell line growth inhibition, 48 h
MEASURED_ATTRIBUTE: TGI

Tell me the measured TGI of CCOc1ccc(NC(=O)C(=O)CC(=O)c2sc(NNC(C)=O)nc2C)cc1 , please.
> 100 µM

Tell me the measured TGI of O=C1/C(=C/c2cccc(F)c2)CCCc2ccccc21 , please.
34 µM

Tell me the measured TGI of O=C(c1cccs1)N(C(=S)N1CCN(c2ccccn2)CC1)c1ccccc1 , please.
> 100 µM

Tell me the measured TGI of C=C1CCC2C3(C)COC(c4ccc(N(C)C)cc4)OC3CCC2(C)C1C/C=C1/C(=O)OCC1O (stereo not given) , please.
3.99 µM

Tell me the measured TGI of CNC1=C(C)C(=O)C(=O)C([C@H](C)CCC=C(C)C)=C1O , please.
> 29.4 µM

Tell me the measured TGI of OC1(c2cccs2)c2cccc(Cl)c2C(O)(c2cccs2)c2c(Cl)cccc21 (stereo not given) , please.
> 100 µM

Tell me the measured TGI of Cn1cc2ccccc2c1-c1nc(F)nc(F)n1 , please.
> 100 µM

Tell me the measured TGI of O=c1c2c(oc3ccccc13)-c1ccccc1OC2 , please.
> 100 µM

Tell me the measured TGI of COC1CC(OS(=O)(=O)c2ccc([N+](=O)[O-])cc2)C(OC(=O)c2ccccc2)C(C)O1 (stereo not given) , please.
> 100 µM

Tell me the measured TGI of CN(CCCCCl)P(=O)(OCc1ccc([N+](=O)[O-])o1)OC[C@H]1O[C@@H](n2cc(F)c(=O)[nH]c2=O)C[C@@H]1O (stereo not given in full) , please.
20.7 µM

* * *

test system: NCI-H522 lung; test: NCI tumour cell line growth inhibition, 48 h
Could you please report measured GI50 for the items listed next?

Tell me the measured GI50 of CC1CCC(NC(=O)N(CCCl)N=O)CC1 (stereo not given) , please.
14100 nM

Tell me the measured GI50 of O=C(CCCCCCCCC(=O)N/N=C\c1ccccc1O)N/N=C\c1ccccc1O , please.
257 nM

Tell me the measured GI50 of COc1ccc2[nH]c(O)c(N=NC(=O)c3oc4ccccc4c3C)c2c1 , please.
6070 nM

Tell me the measured GI50 of CCC[CH2][Sn]1([CH2]CCC)[O]C(=O)c2cccnc2[O]1 , please.
476 nM

Tell me the measured GI50 of C=C1C(=O)O[C@H]2[C@H]1CC/C(COC(=O)NCc1ccc(Cn3c(=O)sn(CCCl)c3=O)cc1)=C\CC[C@@]1(C)O[C@@H]21 , please.
1380 nM

Tell me the measured GI50 of FC(F)(F)c1ccc(Nc2nc(-c3c(C(F)(F)F)nc4ccccn34)cs2)cc1 , please.
28.4 nM

Tell me the measured GI50 of COC(=O)c1nc(-c2ccccc2)oc1S(=O)(=O)Cc1ccccc1 , please.
1520 nM

Tell me the measured GI50 of COc1ccc(C(=O)c2cc(OC)c(OC)c(OC)c2)cc1OC(=O)CCl , please.
19.6 nM

Tell me the measured GI50 of CCN(CC)CCCCNc1c2ccccc2[n+](C)c2c1[nH]c1ccccc12 , please.
79.6 nM

Tell me the measured GI50 of Cc1cc2c(cc1C)N(C(=O)CCl)CC(=O)N2 , please.
568 nM

* * *

tested on: U251 CNS; assay: NCI tumour cell line growth inhibition, 48 h
Could you please report measured TGI for the items listed next?
Your answer is read as µM, so omit the unit and give the number.

Tell me the measured TGI of CCN(CC)c1c(C(=O)/C=C/c2ccc(OC)cc2)c(-c2ccccc2)nn(C)c1=O , please.
32.7

Tell me the measured TGI of NC1=C(NC(=O)Cc2ccc(F)cc2)C(=O)c2ccccc2C1=O , please.
46.8

Tell me the measured TGI of Cn1c(=O)c(Br)c(C=O)n(CCO[N+](=O)[O-])c1=O , please.
9.77

Tell me the measured TGI of CC(C)(C)n1cc(-c2ccnc(NCCCNS(=O)(=O)c3ccc(C(F)(F)F)cc3)c2)c(-c2cccc(O)c2)n1 , please.
3.53

* * *

tested on: MOLT-4 leukemia; experiment: NCI tumour cell line growth inhibition, 48 h
*1 amine or outer side, *2 acyl side, *3 side chain or, on linkers, in order; H or OH if unused. Where a SMILES comes first, the peptide text is derived from it. [ ]: non-standard residue; d: D form. The star is where a group is joined. X31 = CC(=O)N(C)SCC(N[*:1])C(=O)[*:2]; Cbz = O=C(OCc1ccccc1)*; Bn = c1ccc(C*)cc1; For = O=C*
MEASURED_ATTRIBUTE: TGI

Tell me the measured TGI of CC(=O)N(C)SCC(NC(=O)C(Cc1ccccc1)NC(=O)OCc1ccccc1)C(=O)NC(Cc1ccccc1)C(=O)NC(Cc1cn(C=O)c2ccccc12)C(=O)NC(CCCCNC(=O)OCc1ccccc1)C(=O)NC(C(=O)NC(CSN(C)C(C)=O)C(=O)NC(C(N)=O)C(C)OCc1ccccc1)C(C)OCc1ccccc1 (stereo unspecified) (Cbz-F[X31]FW(For)K(Cbz)T(Bn)[X31]T(Bn)-NH2; configuration not given here) , please.
> 100 µM

Tell me the measured TGI of CNC1=C(C)C(=O)C(=O)C([C@H](C)CCC=C(C)C)=C1O , please.
> 48.5 µM

Tell me the measured TGI of COC1(OC)c2no[n+]([O-])c2CCC1O (stereo unspecified) , please.
> 100 µM

Tell me the measured TGI of CCC(C)(CC(C)(C)C(=O)NCC(=O)NC(Cc1ccccc1)C(=O)NC(Cc1ccccc1)C(=O)NCC(=O)NC1CC(OC2CC(O)(C(=O)CO)Cc3c(O)c4c(c(O)c32)C(=O)c2c(OC)cccc2C4=O)OC(C)C1O)C(=O)NCC(C)O (stereo unspecified) , please.
96.6 µg/mL

Tell me the measured TGI of NC1=C(NC(=O)Cc2ccc(F)cc2)C(=O)c2ccccc2C1=O , please.
> 100 µM

Tell me the measured TGI of Cn1c2ccccc2c2c(-c3ccccc3)cc3c(c21)C(=O)C=CC3=O , please.
1.1 µM
